Taken from patent US5852007A.

molecular target: thrombin (Homo sapiens, UniProt P00734); construct: purchased Sigma Chem. Co. T-7009; experiment: Inhibition of thrombin; assay type: biochemical; conditions: Table III; 10 uM; read-out: Thrombin % I @ 10 uM
Square brackets hold non-standard residues; d marks the D form. Peptide text beside a SMILES is read from it. * marks the point of attachment. d(hPhe) = N[C@H](CCc1ccccc1)C(=O)O; Bn = c1ccc(C*)cc1; Ms = CS(=O)(=O)*
observable: inhibition at 10 µM (%)

Consider the worked cases shown below.
{"compound": "C[C@H](OCc1ccccc1)[C@@H](NS(C)(=O)=O)C(=O)N[C@H](C=O)Cc1ccccc1 [Compound 43] (Ms-[dT](Bn)-Phe-aldehyde)", "observable": "inhibition at 10 µM", "measurement": 0}
{"compound": "CS(=O)(=O)N[C@H](CCc1ccccc1)C(=O)N[C@H](C=O)Cc1ccccc1 [Compound 62] (Ms-[d(hPhe)]-Phe-aldehyde)", "observable": "inhibition at 10 µM", "measurement": 0}
{"compound": "O=C[C@H](Cc1ccccc1)NC(=O)[C@@H](Cc1c[nH]c2ccccc12)NS(=O)(=O)c1cccs1 [Compound 73]", "observable": "inhibition at 10 µM", "measurement": 12}
{"compound": "O=C[C@H](Cc1ccccc1)NC(=O)[C@@H](COCc1ccccc1)NC(=O)OCc1ccccc1 [Compound 64]", "observable": "inhibition at 10 µM", "measurement": 0}
{"compound": "CS(=O)(=O)N[C@H](COCc1ccccc1)C(=O)N[C@@H](Cc1ccccc1)C1N(c2ccccc2)CCN1c1ccccc1 [Compound 132]", "observable": "inhibition at 10 µM", "measurement": 0}
{"compound": "CS(=O)(=O)N[C@H](COCc1ccccc1)C(=O)N[C@H](C=O)CCCCNC(=O)OCc1ccccc1 [Compound 92]", "observable": "inhibition at 10 µM", "measurement": 0}
{"compound": "Cc1ccc(S(=O)(=O)N2C[C@@H](C#N)C[C@@H]2C(=O)N[C@H](C=O)Cc2ccccc2)cc1 [Compound 129]", "observable": "inhibition at 10 µM", "measurement": 1}
{"compound": "CN([C@H](COCc1ccccc1)C(=O)N[C@H](C=O)Cc1ccccc1)S(C)(=O)=O [Compound 83]", "observable": "inhibition at 10 µM", "measurement": 7}

1. O=C[C@H](Cc1ccccc1)NC(=O)[C@@H](COCc1ccccc1)NS(=O)(=O)c1cccs1 [Compound 54]
2. CC(=O)Nc1ccc(S(=O)(=O)N[C@H](COCc2ccccc2)C(=O)N[C@H](C=O)Cc2ccccc2)cc1 [Compound 51]
Sorting by inhibition at 10 µM in descending order, would 1 or 2 appear first? Field: selected label. Fill in the label of the entry you choose.
2

P. Cn1cnc(S(=O)(=O)N[C@H](COCc2ccccc2)C(=O)N[C@H](C=O)Cc2ccccc2)c1 [Compound 63]
Q. CC(=O)Nc1ccc(S(=O)(=O)N2CCC[C@@H]2C(=O)N[C@H](C=O)Cc2ccccc2)cc1 [Compound 103]
Sorting by inhibition at 10 µM in descending order, would P or Q appear first? Field: selected label. Fill in the label of the entry you choose.
Q
(Q: 3%, P: 1%)

P. CCNC(=O)OC[C@H](Cc1ccccc1)NC(=O)[C@H]1CCCN1S(=O)(=O)c1ccc(C)cc1 [Compound 123]
Q. O=C[C@H](Cc1ccccc1)NC(=O)[C@H]1CCCN1S(=O)(=O)Cc1ccccc1 [Compound 102]
R. O=C[C@H](Cc1ccccc1)NC(=O)[C@@H](COCc1ccccc1)NS(=O)(=O)c1ccccc1 [Compound 48]
S. Cc1noc(C)c1S(=O)(=O)N[C@H](COCc1ccccc1)C(=O)N[C@H](C=O)Cc1ccccc1 [Compound 55]
Put the items in sequence by inhibition at 10 µM, from largest down. Respond with the label ranking, as requested.
Q, R, S, P
(Q: 7%, R: 3%, S: 2%, P: 0%)

====

target: α-chymotrypsin (Bos taurus, UniProt P00766); construct: purchased Sigma Chem. Co. C-3142; experiment: Inhibition of α-chymotrypsin; assay type: biochemical; conditions: Table III; 10 uM; read-out: Chymotrypsin % I @ 10 uM
Square brackets hold non-standard residues; d marks the D form. Peptide text beside a SMILES is read from it. * marks the point of attachment. 2Pal = N[C@@H](Cc1ccccn1)C(=O)O; d2Thi = N[C@H](Cc1cccs1)C(=O)O; Bn = c1ccc(C*)cc1; Ms = CS(=O)(=O)*
observable: inhibition at 10 µM (%)

{"compound": "O=C[C@H](Cc1ccccc1)NC(=O)[C@H]1C[C@@H](OS(=O)(=O)c2ccccc2)CN1S(=O)(=O)c1ccccc1 [Compound 112]", "inhibition at 10 µM (%)": 9}
{"compound": "Cn1cnc(S(=O)(=O)N[C@H](COCc2ccccc2)C(=O)N[C@H](C=O)Cc2ccccc2)c1 [Compound 63]", "inhibition at 10 µM (%)": 40}
{"compound": "CS(=O)(=O)N[C@H](Cc1cccs1)C(=O)N[C@H](C=O)Cc1ccccc1 [Compound 100] (Ms-[d2Thi]-Phe-aldehyde)", "inhibition at 10 µM (%)": 0}

a. CS(=O)(=O)N[C@H](COCc1ccccc1)C(=O)N[C@@H](Cc1ccccc1)C(O)S(=O)(=O)O (stereo partly shown) [Compound 128]
b. CS(=O)(=O)N[C@H](COCc1ccccc1)C(=O)N[C@H](C=O)Cc1ccccn1 [Compound 109] (Ms-[dS](Bn)-[2Pal]-aldehyde)
c. CC(=O)Nc1ccc(S(=O)(=O)N2CCC[C@@H]2C(=O)N[C@H](C=O)Cc2ccccc2)cc1 [Compound 103]
d. CS(=O)(=O)N[C@H](COCc1ccccc1)C(=O)N[C@H](C=NO)Cc1ccccc1 [Compound 118]
Please order the records by their reported inhibition at 10 µM, lowest number first. Respond with the label ranking, as requested.
b, a, d, c

====

biological target: thrombin (Homo sapiens, UniProt P00734); construct: purchased Sigma Chem. Co. T-7009; experiment: Inhibition of thrombin; type: biochemical; details: Table III; 10 uM; read-out: Thrombin % I @ 10 uM
Square brackets hold non-standard residues; d marks the D form. Peptide text beside a SMILES is read from it. * marks the point of attachment. ξ: configuration not given here. d(αMeF) = C[C@@](N)(Cc1ccccc1)C(=O)O; dPhg = N[C@@H](C(=O)O)c1ccccc1; Tle = CC(C)(C)[C@H](N)C(=O)O; ξF = NC(Cc1ccccc1)C(=O)O; Bn = c1ccc(C*)cc1; Ms = CS(=O)(=O)*
observable: inhibition at 10 µM (%)

Consider the worked cases shown below.
{"compound": "CS(=O)(=O)N[C@H](COCc1ccccc1)C(=O)N[C@@H](Cc1ccccc1)C(O)S(=O)(=O)O (some centres unmarked) [Compound 128]", "targetEntity": "thrombin (Homo sapiens, UniProt P00734)", "readoutUnits": "%", "inhibition at 10 µM": 0}
{"compound": "CC(C)(C)[C@@H](C=O)NC(=O)[C@@H](COCc1ccccc1)NS(C)(=O)=O [Compound 111] (Ms-[dS](Bn)-[Tle]-aldehyde)", "targetEntity": "thrombin (Homo sapiens, UniProt P00734)", "readoutUnits": "%", "inhibition at 10 µM": 0}
{"compound": "C[C@](Cc1ccccc1)(NS(C)(=O)=O)C(=O)NC(C=O)Cc1ccccc1 (some centres unmarked) [Compound 105] (Ms-[d(αMeF)]-[ξF]-aldehyde)", "targetEntity": "thrombin (Homo sapiens, UniProt P00734)", "readoutUnits": "%", "inhibition at 10 µM": 0}
{"compound": "CS(=O)(=O)N[C@H](Cc1c[nH]c2ccccc12)C(=O)N[C@H](C=O)Cc1ccccc1 [Compound 77] (Ms-[dW]-Phe-aldehyde)", "targetEntity": "thrombin (Homo sapiens, UniProt P00734)", "readoutUnits": "%", "inhibition at 10 µM": 0}
{"compound": "CON=C[C@H](Cc1ccccc1)NC(=O)[C@@H](COCc1ccccc1)NS(C)(=O)=O [Compound 119]", "targetEntity": "thrombin (Homo sapiens, UniProt P00734)", "readoutUnits": "%", "inhibition at 10 µM": 0}
{"compound": "CS(=O)(=O)N[C@@H](C(=O)N[C@H](C=O)Cc1ccccc1)c1ccccc1 [Compound 76] (Ms-[dPhg]-Phe-aldehyde)", "targetEntity": "thrombin (Homo sapiens, UniProt P00734)", "readoutUnits": "%", "inhibition at 10 µM": 1}
{"compound": "CN1CCN(C)C1[C@H](Cc1ccccc1)NC(=O)[C@@H](COCc1ccccc1)NS(C)(=O)=O [Compound 133]", "targetEntity": "thrombin (Homo sapiens, UniProt P00734)", "readoutUnits": "%", "inhibition at 10 µM": 0}
{"compound": "CC(C)(C)OC(=O)NCCCC[C@@H](C=O)NC(=O)[C@@H](COCc1ccccc1)NS(C)(=O)=O [Compound 93]", "targetEntity": "thrombin (Homo sapiens, UniProt P00734)", "readoutUnits": "%", "inhibition at 10 µM": 0}

P. CS(=O)(=O)N[C@H](COCc1ccccc1)C(=O)N[C@@H](C=O)Cc1ccccc1 [Compound 84]
Q. CN(Cc1ccccc1)C(=O)CC[C@@H](NS(C)(=O)=O)C(=O)N[C@H](C=O)Cc1ccccc1 [Compound 79]
R. CS(=O)(=O)N[C@H](COCc1ccccc1)C(=O)N[C@@H](Cc1ccccc1)C1OCCS1 (some centres unmarked) [Compound 131]
S. CS(=O)(=O)N[C@H](CS(=O)(=O)Cc1ccccc1)C(=O)N[C@H](C=O)Cc1ccccc1 [Compound 80]
Put the items in sequence by inhibition at 10 µM, from largest down. Respond with the label ranking, as requested.
R, S, Q, P
